Can you tell me Selectivity index for the items I'm about to list?
System: CEM-SS
assay-text: Selective Index of against HIV -I Lai infected CEM-SS cells.
Assay type: functional, Homo sapiens
I'd appreciate a reply containing only the number, no unit.

So, COC1C(CO)OC(n2c3ccc(Br)cc3c3c4c(c5c6cc(Br)ccc6[nH]c5c32)C(=O)N(C)C4=O)C(O)C1O (stereo not drawn) ? Its Selectivity index was 1.3

Entry COC1C(CO)OC(n2c3ccc(Br)cc3c3c4c(c5c6cc(Br)ccc6[nH]c5c32)C(=O)NC4=O)C(O)C1O (stereo not drawn) ; Selectivity index = 4.8

Selectivity index reported for this compound CO[C@H]1[C@H](O)[C@@H](O)[C@H](n2c3c(Cl)cccc3c3c4c(c5c6cccc(Cl)c6[nH]c5c32)C(=O)N(C)C4=O)O[C@@H]1CO : 1.6

For CO[C@H]1[C@H](O)[C@@H](O)[C@H](n2c3ccccc3c3c4c(c5c6ccccc6[nH]c5c32)C(=O)N(C)C4=O)O[C@@H]1CO the compound record lists Selectivity index as 2

Memo: CO[C@H]1[C@H](O)[C@@H](O)[C@H](n2c3ccccc3c3c4c(c5c6ccccc6[nH]c5c32)C(=O)NC4=O)O[C@@H]1CO , reported Selectivity index: 5.6

Selectivity index measured on CO[C@H]1[C@H](O)[C@@H](O)[C@H](n2c3ccc(Br)cc3c3c4c(c5c6cc(Br)ccc6[nH]c5c32)C(=O)OC4=O)O[C@@H]1CO = 1.9

* * *

Exercise: for every item that follows, state its recorded CC50.
Test system: CEM-SS
assay-text: The cytotoxicity was evaluated in HIV -I Lai infected CEM-SS cells.
Assay type: functional
study-conditions: Homo sapiens
Answer with a number only, understood to be in µM.

Quick note, CC50 for CO[C@H]1[C@H](O)[C@@H](O)[C@H](n2c3c(Cl)cccc3c3c4c(c5c6cccc(Cl)c6[nH]c5c32)C(=O)N(C)C4=O)O[C@@H]1CO landed at 8

response.value for COC1C(CO)OC(n2c3ccc(Br)cc3c3c4c(c5c6cc(Br)ccc6[nH]c5c32)C(=O)NC4=O)C(O)C1O (centres undefined) (field: CC50) = 0.34

Documented CC50 of COC1C(CO)OC(n2c3ccc(Br)cc3c3c4c(c5c6cc(Br)ccc6[nH]c5c32)C(=O)N(C)C4=O)C(O)C1O (centres undefined) : 1.49

Entry under test: CO[C@H]1[C@H](O)[C@@H](O)[C@H](n2c3ccccc3c3c4c(c5c6ccccc6[nH]c5c32)C(=O)N(C)C4=O)O[C@@H]1CO . Its CC50 was 7.9

This collection of values is drawn from ChEMBL document CHEMBL1132214.
